Biological target: T1, recombinant human Nectin4 antigen (human, UniProt Q96NY8 32-349)
T1 construct: construct not described
T1 sequence (looked up): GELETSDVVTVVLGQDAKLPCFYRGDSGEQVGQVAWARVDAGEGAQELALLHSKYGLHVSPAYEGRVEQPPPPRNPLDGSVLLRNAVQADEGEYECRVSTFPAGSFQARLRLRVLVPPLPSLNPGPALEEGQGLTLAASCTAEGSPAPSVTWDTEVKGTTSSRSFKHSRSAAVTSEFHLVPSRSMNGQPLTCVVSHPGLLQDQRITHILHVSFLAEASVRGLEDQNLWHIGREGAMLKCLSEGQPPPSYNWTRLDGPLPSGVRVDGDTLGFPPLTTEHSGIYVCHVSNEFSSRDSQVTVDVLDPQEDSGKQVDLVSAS
Assay: ELISA, coated antigen, PSB pH 6.0
Protocol: 1) Coat ELISA plates with 100 μL of 1 μg/mL recombinant human Nectin4 antigen or cynoNectin4 antigen in carbonate-bicarbonate coating buffer. […] 2) Cover plates with sealing film and incubate overnight at 4° C. [0444] 3) Decant plates and tap out residual liquid on a stack of paper towels. [0445] 4) Wash wells twice by dispensing 200 μL of pH 6.0 or pH 7.4 ELISA incubation buffer to the wells and completely aspirate the contents. [0446] […]

[
  {
    "Binder": "BAP-143-00-03 (antibody, V domains shown, Used as a conjugate with a linker payload (CAB ADC)) VH: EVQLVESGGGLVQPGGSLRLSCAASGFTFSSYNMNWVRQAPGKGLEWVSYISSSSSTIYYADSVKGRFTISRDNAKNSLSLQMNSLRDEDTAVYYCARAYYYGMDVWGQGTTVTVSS VL: DIQMTQSPSSVSASVGDRVTITCRASQGISGWLAWYQQKPGKAPKFLIYAASTLQSGVPSRFSGSGSGTDFTLTISSLQPEDFATYYCQQANSFPDTFGGGTKVEIK",
    "EC50, mg/L": 0.0344
  },
  {
    "Binder": "BAP-143-wildtype (antibody, V domains shown, 150 kDa used in SPR; also called BAP143-00-00; benchmark (BM)) VH: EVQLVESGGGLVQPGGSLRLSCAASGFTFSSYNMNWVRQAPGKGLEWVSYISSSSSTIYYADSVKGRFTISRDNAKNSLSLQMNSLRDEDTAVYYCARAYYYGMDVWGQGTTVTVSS VL: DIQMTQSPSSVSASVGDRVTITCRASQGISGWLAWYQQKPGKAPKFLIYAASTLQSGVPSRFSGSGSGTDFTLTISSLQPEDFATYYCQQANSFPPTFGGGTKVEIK",
    "EC50, mg/L": 0.0316
  },
  {
    "Binder": "BAP-143-00-05 (antibody, V domains shown, Used as a conjugate with a linker payload (CAB ADC)) VH: EVQLVESGGGLVQPGGSLRLSCAASGFTFSSYNMNWVRQAPGKGLEWVSYISSSSSTIYYADSVKGRFTISRDNAKNSLSLQMNSLRDEDTAVYYCAEAYYYGMDVWGQGTTVTVSS VL: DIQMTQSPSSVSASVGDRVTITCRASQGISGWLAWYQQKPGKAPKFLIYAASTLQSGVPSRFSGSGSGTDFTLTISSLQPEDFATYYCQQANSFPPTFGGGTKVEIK",
    "EC50, mg/L": 0.0441
  },
  {
    "Binder": "BAP-143-00-01 (antibody, V domains shown, Used as a conjugate with a linker payload (CAB ADC)) VH: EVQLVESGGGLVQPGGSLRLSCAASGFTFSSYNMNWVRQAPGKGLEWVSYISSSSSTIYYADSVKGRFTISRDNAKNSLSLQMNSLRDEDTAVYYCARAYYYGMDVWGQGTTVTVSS VL: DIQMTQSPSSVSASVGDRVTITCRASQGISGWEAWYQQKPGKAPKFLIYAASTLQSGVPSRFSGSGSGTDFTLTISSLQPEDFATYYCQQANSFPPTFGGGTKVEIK",
    "EC50, mg/L": 0.0313
  },
  {
    "Binder": "BAP-143-00-02 (antibody, V domains shown, Used as a conjugate with a linker payload (CAB ADC)) VH: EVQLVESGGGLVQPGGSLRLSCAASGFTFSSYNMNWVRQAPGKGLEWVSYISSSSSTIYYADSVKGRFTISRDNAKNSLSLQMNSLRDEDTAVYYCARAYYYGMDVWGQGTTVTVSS VL: DIQMTQSPSSVSASVGDRVTITCRASQGISGWLAWYQQKPGKAPKFLIYAASTLQSGVPSRFSGSGSGTDFTLTISSLQPEDFATYYCQQANSEPPTFGGGTKVEIK",
    "EC50, mg/L": 0.0876
  },
  {
    "Binder": "BAP-143-00-04 (antibody, V domains shown, Used as a conjugate with a linker payload (CAB ADC)) VH: EVQLVESGGGLVQPGGSLRLSCAASGFTFSSYNDNWVRQAPGKGLEWVSYISSSSSTIYYADSVKGRFTISRDNAKNSLSLQMNSLRDEDTAVYYCARAYYYGMDVWGQGTTVTVSS VL: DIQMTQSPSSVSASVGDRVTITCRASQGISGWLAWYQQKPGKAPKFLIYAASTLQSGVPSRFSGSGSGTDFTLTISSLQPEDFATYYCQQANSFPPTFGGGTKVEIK",
    "EC50, mg/L": 0.0258
  },
  {
    "Binder": "BAP-143-00-06 (antibody, V domains shown, Used as a conjugate with a linker payload (CAB ADC)) VH: EVQLVESGGGLVQPGGSLRLSCAASGFTFSSYNMNWVRQAPGKGLEWVSYISSSSSTIYYADSVKGRFTISRDNAKNSLSLQMNSLRDEDTAVYYCARAYYYGDDVWGQGTTVTVSS VL: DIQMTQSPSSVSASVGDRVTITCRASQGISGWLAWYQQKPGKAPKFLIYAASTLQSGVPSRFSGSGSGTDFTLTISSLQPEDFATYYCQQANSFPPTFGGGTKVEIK",
    "EC50, mg/L": 0.0247
  }
]

These entries and their values trace back to patent US20230235054A1.
